Hey, just so you know, these numbers are from patent US7304174B2.

Target: human calcium receptor (Homo sapiens)
Sequence (P41180 20-1078): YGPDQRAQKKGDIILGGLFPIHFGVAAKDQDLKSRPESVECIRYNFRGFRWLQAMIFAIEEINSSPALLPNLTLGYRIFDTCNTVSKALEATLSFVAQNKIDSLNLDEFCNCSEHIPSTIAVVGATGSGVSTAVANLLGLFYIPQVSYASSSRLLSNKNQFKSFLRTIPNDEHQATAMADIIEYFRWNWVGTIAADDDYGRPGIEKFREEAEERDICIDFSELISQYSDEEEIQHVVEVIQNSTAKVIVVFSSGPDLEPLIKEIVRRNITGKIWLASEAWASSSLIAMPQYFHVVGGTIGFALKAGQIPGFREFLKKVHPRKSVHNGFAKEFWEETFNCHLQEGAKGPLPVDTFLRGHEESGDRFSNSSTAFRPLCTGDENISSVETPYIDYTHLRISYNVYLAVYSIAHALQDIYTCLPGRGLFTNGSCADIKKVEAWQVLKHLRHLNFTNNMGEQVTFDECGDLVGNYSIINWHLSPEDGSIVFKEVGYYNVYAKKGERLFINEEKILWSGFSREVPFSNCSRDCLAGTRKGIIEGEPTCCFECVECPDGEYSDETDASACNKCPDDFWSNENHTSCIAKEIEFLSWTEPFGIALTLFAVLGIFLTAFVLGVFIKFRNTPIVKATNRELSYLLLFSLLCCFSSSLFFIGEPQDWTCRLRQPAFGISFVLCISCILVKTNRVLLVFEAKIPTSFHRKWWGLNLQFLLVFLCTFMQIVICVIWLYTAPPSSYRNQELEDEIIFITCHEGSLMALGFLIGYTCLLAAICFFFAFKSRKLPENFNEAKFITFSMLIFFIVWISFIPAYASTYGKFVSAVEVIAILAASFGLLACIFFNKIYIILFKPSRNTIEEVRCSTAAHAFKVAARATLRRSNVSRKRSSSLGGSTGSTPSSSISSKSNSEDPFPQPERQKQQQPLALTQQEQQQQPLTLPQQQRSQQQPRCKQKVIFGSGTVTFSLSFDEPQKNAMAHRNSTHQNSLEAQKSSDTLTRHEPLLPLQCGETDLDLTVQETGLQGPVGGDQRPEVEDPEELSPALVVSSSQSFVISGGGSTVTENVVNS
Assay: Evaluation of antagonistic action on calcium receptor using reporter gene (luciferase)
Settings: transformed rat adrenal derived cells, 5 mM calcium chloride, culture 4 hrs, luciferase activity; read-out: Reporter gene assay (IC50, concentration showing 50% inhibitory rate)
Below: a set of entries, each annotated with reported IC50.
Return type: number; implicit unit nM.

Below, 5 compounds whose answers are already recorded.
| Compound | Property label | Display unit | Result |
| --- | --- | --- | --- |
| Cc1ccc(CC(C)(C)NC[C@@H](O)CO[C@H](C)c2ccccc2-c2ccc(C(=O)O)c(C)c2)c(F)c1 | IC50 | nM | 15 |
| CC(OC[C@H](O)CNC(C)(C)Cc1ccc2ccccc2c1)c1ccccc1-c1ccc(C(=O)O)c(C(F)(F)F)c1 (some centres unmarked) | IC50 | nM | 7 |
| Cc1ccc(CC(C)(C)NC[C@@H](O)CO[C@H](C)c2ccccc2-c2ccc(C(=O)O)c(C)c2)cc1F [Example 1-1] | IC50 | nM | 24 |
| CCCc1cc(-c2ccccc2[C@@H](C)OC[C@H](O)CNC(C)(C)Cc2ccc3ccccc3c2)ccc1C(=O)O | IC50 | nM | 2 |
| Cc1ccc(CC(C)(C)NC[C@@H](O)CO[C@H](C)c2ccccc2-c2ccc(C(=O)O)c(C)c2)cc1 | IC50 | nM | 12 |

**Query** Using known records, supply IC50 for Cc1cc(-c2ccccc2[C@@H](C)OC[C@H](O)CNC(C)(C)Cc2cc(F)ccc2F)ccc1C(=O)O
**Result** 271

**Query** Respond only with IC50 recorded for Cc1cc(-c2ccccc2[C@@H](C)OC[C@H](O)CNC(C)(C)Cc2ccc(C)c(F)c2F)ccc1C(=O)O
**Result** 3

**Query** For Cc1ccc(-c2ccccc2[C@@H](C)OC[C@H](O)CNC(C)(C)Cc2ccc3ccccc3c2)cc1C(=O)O , write its IC50.
**Result** 4

**Query** Tell us which IC50 value is on record for CC(OC[C@H](O)CNC(C)(C)Cc1ccc2ccccc2c1)c1ccccc1Sc1ccc(C(=O)O)cc1 (some centres unmarked)
**Result** 14
